Target: LacI wild-type (Escherichia coli, UniProt P03023 1-360)
Sequence (P03023 whole entry): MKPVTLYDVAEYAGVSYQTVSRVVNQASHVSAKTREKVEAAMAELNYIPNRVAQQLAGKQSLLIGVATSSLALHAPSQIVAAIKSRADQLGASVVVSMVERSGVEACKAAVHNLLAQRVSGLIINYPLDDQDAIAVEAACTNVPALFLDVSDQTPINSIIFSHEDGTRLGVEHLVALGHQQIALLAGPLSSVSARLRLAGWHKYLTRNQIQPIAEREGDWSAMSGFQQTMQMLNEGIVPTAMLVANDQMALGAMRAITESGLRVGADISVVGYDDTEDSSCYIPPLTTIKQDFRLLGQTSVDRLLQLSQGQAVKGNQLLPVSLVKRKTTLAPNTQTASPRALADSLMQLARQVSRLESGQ
Experiment: filter binding
attribute measured: Kd (nM)
One number for each entry, in nM.

Task: Quote Kd reported for 40-bp natural lac operator (dsDNA) DNA 1: TGTTGTGTGGAATTGTGAGCGGATAACAATTTCACACAGG DNA 2: CCTGTGTGAAATTGTTATCCGCTCACAATTCCACACAACA please.
Output: 0.022
